- systemTested: Bcl-xL, Q07817
- Sequence (Q07817 1-209): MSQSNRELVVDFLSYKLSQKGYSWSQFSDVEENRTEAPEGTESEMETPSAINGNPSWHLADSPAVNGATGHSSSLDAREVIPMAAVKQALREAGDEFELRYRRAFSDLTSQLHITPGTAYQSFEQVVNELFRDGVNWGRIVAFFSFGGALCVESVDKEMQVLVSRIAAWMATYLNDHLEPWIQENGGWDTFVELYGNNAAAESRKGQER
- measurementProtocol: peptide SPOT array, c-Myc-tagged receptor at 1 uM or 100 nM, anti-c-Myc-Cy3
Form field: SPOT signal as a fraction of Bim BH3's signal on the same receptor and array (one value per entry).
Respond with the number and no other words.

FRFAQLCGLHIVIHADELEELMCYYQ [CLTCL1] :: 0.02
HRTSNVLTLSLKRFANFSGGKITKDV :: 0.55

Exercise: # return recorded SPOT signal as a fraction of Bim BH3's signal on the same receptor and array for entry LRCEMASTGEDACFGEGIHTAFLKAM [CPS1]
Solution: 0.02

Exercise: Note down SPOT signal as a fraction of Bim BH3's signal on the same receptor and array recorded for AYRGRGIAKHLAKALLDFVVEEDLKA [C17orf103]
Solution: 0.17

Exercise: Tell me SPOT signal as a fraction of Bim BH3's signal on the same receptor and array reported for TEEMKHNVEKLNELSKNLNRAFAEFE [DNAH3]
Solution: 0.02

Exercise: In one line, give reported SPOT signal as a fraction of Bim BH3's signal on the same receptor and array of the entry TCLNRGFSRLLDNMAEFFRPTEQDLQ [PEX3] .
Solution: 0.06

Exercise: Give a short answer stating reported SPOT signal as a fraction of Bim BH3's signal on the same receptor and array for AIKPVSFIRDLKKIARHFRFGNQEDA .
Solution: 0.61

Exercise: State its SPOT signal as a fraction of Bim BH3's signal on the same receptor and array for this binder: DGVLSFIHHQIIELARDCLTKSRDGL [MAST1]
Solution: 0.03

Exercise: Name the recorded SPOT signal as a fraction of Bim BH3's signal on the same receptor and array of the binder listed here: KGTAVAICRRDGIFGDTEDVAGKAYT [ATP2A3]
Solution: 0.08
